# ASSAY_TARGET: T1, Hu FcRn (BPS Bioscience) (human, UniProt P55899 24-297; P61769 21-119)
# T1 construct: Bought recombinant protein coated on ELISA plates; also called human FcRn; human neonatal Fc receptor
# T1 sequence (P55899 24-297 limits assumed, chain 1 of 2): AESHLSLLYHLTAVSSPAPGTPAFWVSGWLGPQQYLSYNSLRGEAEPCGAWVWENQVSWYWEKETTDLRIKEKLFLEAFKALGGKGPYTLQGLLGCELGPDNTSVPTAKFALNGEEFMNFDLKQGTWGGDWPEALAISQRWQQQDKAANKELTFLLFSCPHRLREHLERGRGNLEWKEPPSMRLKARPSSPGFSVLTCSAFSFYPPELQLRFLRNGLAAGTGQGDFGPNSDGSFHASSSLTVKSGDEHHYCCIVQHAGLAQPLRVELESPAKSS
# T1 sequence (P61769 21-119 limits assumed, chain 2 of 2): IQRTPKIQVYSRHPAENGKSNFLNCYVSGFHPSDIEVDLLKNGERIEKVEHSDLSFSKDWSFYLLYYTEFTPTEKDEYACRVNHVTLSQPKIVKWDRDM
# METHOD: optimized ELISA on FcRn, pH 6
MEASURE_NAME: pEC50
Please keep in mind that pEC50 is minus log10 of the molar concentration; only the number is needed.

Sample answers from the record:
BINDER | MEASURED_RESULT
FcRn-48 (designed binder, AFFIMER (stefin A variant)) MIPRGLSEAKPATPEIQEIVDKVKPQLEEKTNETYGKLEAVQYKTQVLAKPKYHHHDISTNYYIKVRAGDNKYMHLKVFNGPGHHAKPHRWADRVLTGYQVDKNKDDELTGFHHHHHH | 5.82
FcRn-88 (designed binder, AFFIMER (stefin A variant)) MIPRGLSEAKPATPEIQEIVDKVKPQLEEKTNETYGKLEAVQYKTQVLAHHTKHHSRWSTNYYIKVRAGDNKYMHLKVFNGPVNHISHAPIADRVLTGYQVDKNKDDELTGFHHHHHH | 6.01
FcRn-12 (designed binder, AFFIMER (stefin A variant)) MIPRGLSEAKPATPEIQEIVDKVKPQLEEKTNETYGKLEAVQYKTQVLAKVKTHDHQRSTNYYIKVRAGDNKYMHLKVFNGPIHQHHSQDWADRVLTGYQVDKNKDDELTGFHHHHHH | 6.58

stdin: // lookup pEC50 for FcRn-18 (designed binder, AFFIMER (stefin A variant)) MIPRGLSEAKPATPEIQEIVDKVKPQLEEKTNETYGKLEAVQYKTQVLAETPHERHKTSTNYYIKVRAGDNKYMHLKVFNGPKRWLKHHAHADRVLTGYQVDKNKDDELTGFHHHHHH
stdout: 6.49

Data origin, for the record: patent US20230097573A1
